# Test system: primary human mesenchymal stem cells (hMSCs)
# assay: Induction of chondrogenesis in hMSCs (Rhodamine B / Nile Red nodule imaging)
# Assay type: cell-based
# study_conditions: maximum activity relative to TGF-β3 (10 ng/mL) positive control, read-out: Max. Activity as % TGF-β3 activity
# Method: Representative compounds were screened using primary human mesenchymal stem cells (hMSCs) to determine their ability to induce chondrogenesis (process by which cartilage is developed). […] Area of nodules in each well was normalized to the average of 3 DMSO treated wells on the same plate using Excel (Microsoft Inc.). The normalized averages (fold change over DMSO) of 2 or 3 replicate wells for each compound concentration were calculated. […]
property_measured: Emax (%)

| mol | test_system | scale_unit | observed_value |
| --- | --- | --- | --- |
| CS(=O)(=O)NCc1cc(F)cc(-c2nccc3[nH]c(-c4n[nH]c5ccc(-c6ccncc6)cc45)cc23)c1 | primary human mesenchymal stem cells (hMSCs) | % | 66 |
| CCNCc1cncc(-c2ccc3[nH]nc(-c4cc5c(N6CCCCC6)nccc5[nH]4)c3c2)c1 | primary human mesenchymal stem cells (hMSCs) | % | 301 |
| CCC(=O)Nc1cncc(-c2ccc3[nH]nc(-c4cc5c(-c6cccc(F)c6)nccc5[nH]4)c3c2)c1 | primary human mesenchymal stem cells (hMSCs) | % | 16 |
| CC(C)C(=O)Nc1cncc(-c2ccc3[nH]nc(-c4cc5c(N6CCN(C)CC6)nccc5[nH]4)c3c2)c1 | primary human mesenchymal stem cells (hMSCs) | % | 21 |
